Cited source: ChEMBL document CHEMBL1126360

Measured K inact by item
Target: 4-aminobutyrate aminotransferase, mitochondrial (Sus scrofa)
Sequence (P80147 whole entry): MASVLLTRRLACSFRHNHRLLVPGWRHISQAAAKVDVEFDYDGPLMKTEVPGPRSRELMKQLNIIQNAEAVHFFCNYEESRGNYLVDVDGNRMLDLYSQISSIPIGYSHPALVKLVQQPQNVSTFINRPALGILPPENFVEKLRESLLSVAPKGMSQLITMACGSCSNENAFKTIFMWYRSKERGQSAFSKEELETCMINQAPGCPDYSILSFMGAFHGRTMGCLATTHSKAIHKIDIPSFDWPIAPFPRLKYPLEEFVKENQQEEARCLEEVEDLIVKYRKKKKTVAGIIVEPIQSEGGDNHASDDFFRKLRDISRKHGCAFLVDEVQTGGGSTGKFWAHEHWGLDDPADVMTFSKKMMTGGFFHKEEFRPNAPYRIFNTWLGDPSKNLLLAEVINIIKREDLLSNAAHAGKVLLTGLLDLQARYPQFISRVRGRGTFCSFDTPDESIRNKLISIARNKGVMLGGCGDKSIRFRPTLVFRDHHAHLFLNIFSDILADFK
Test: Rate constants for inactivation at infinite concentration for inactivation of Gamma-amino-N-butyrate transaminase

{"Given smiles": "C=C[C@](C)(N)C(=O)O", "Measurement target": "4-aminobutyrate aminotransferase, mitochondrial (Sus scrofa)", "K inact, min⁻¹": "8.5e-05"}
{"Given smiles": "C[C@](N)(CCl)C(=O)O", "Measurement target": "4-aminobutyrate aminotransferase, mitochondrial (Sus scrofa)", "K inact, min⁻¹": 0.00093}
{"Given smiles": "C[C@](N)(CF)C(=O)O", "Measurement target": "4-aminobutyrate aminotransferase, mitochondrial (Sus scrofa)", "K inact, min⁻¹": 0.00059}
{"Given smiles": "C[C@](N)(COP(=O)(O)O)C(=O)O", "Measurement target": "4-aminobutyrate aminotransferase, mitochondrial (Sus scrofa)", "K inact, min⁻¹": 0.0014}
{"Given smiles": "N[C@@H](COS(=O)(=O)O)C(=O)O", "Measurement target": "4-aminobutyrate aminotransferase, mitochondrial (Sus scrofa)", "K inact, min⁻¹": 0.0055}

* * *

pKi: −log10 of the molar value.
Each entry below carries its measured pKi, system: 4-aminobutyrate aminotransferase, mitochondrial (Sus scrofa).

{"Given smiles": "C=C[C@](C)(N)C(=O)O", "pKi": 1.89}
{"Given smiles": "N[C@@H](COS(=O)(=O)O)C(=O)O", "pKi": 2.62}
{"Given smiles": "C[C@](N)(CF)C(=O)O", "pKi": 2.17}
